Each entry below lists one item and its recorded %Inh value.
test system: PIK3CB; settings: concentration: 1 μM,replicates: in singlicate; n = 1;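 note: KINOMEscan kinase panel screen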

Below, each entry is followed by its recorded %Inh result.
CC(=O)c1c(-c2ccncc2)[nH]c(-c2ccncc2)c1C | 0%
C[C@@H]1CCN(C(=O)N2CCCC2)C[C@@H]1N(C)c1ncnc2[nH]ccc12 | 26%

Quick check: %Inh on PIK3CB, item `O=c1[nH]cc(-c2ccc(O)cc2)c2sc(-c3ccncc3)cc12` ?
13%

Quick check: %Inh on PIK3CB, item `O=C(Nc1n[nH]c2cc(-c3ccco3)ccc12)C1CC1` ?
0%

Quick check: %Inh on PIK3CB, item `CN(c1ccc2c(c1)nc(NCc1ccc(F)cc1)n2C)c1ccnc(Nc2ccc(CS(C)(=O)=O)cc2)n1.Cl` ?
0%

The values you see were collected from paper PMC5540273.
